The values you see were collected from patent US20230035798A1.

Target: T1, recombinant human soluble LIGHT, amino acids 74-240 (R&D Systems 664-LI-025) (human, UniProt O43557 74-240)
T1 construct: range 74-240; also called 74-240 LIGHT; Soluble LIGHT 74-240
T1 chain: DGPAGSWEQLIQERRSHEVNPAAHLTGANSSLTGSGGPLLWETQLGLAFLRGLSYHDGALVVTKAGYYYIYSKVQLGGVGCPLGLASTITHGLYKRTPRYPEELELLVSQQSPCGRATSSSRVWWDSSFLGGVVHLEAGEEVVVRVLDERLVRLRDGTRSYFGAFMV
Experiment: SPR (BIAcore), as for Table 9
QUANTITY: pKd
# pKd is unitless: minus log10 of the molar concentration; print number only

Recorded result, 3B04 (antibody, human IgG4, V domains shown, chimeric: mouse variable domains on human IgG4 HC (S-to-P and L-to-E at 248) and human CL; also called Parental 3B04; 3B04 chimeric) VH: QVQLQQPGAELVRPGASVTLSCKASGYTFTDYEMHWVKQTPVHGLEWIGEIDPETGDTAYSQKFKGKATLTADKSSSTAYMEFRSLTSEDSAVYYCSRETDYFFDYWGQGTTLTVSS VL: DIQMTQTPASLSASVGETVTITCGASENIYGALNWYQRKQGKSPQLLIYGATNLADGMSSRFSGSGSGRQYSLKISSLHPDDFATYYCQNVLTTPWTFGGGTKLEIKR , pKd: 7.95
